targetSystem: T1, SCRIB-34/4 (MBP fusion of the tandem of the third and fourth PDZ domains of SCRIB) (human, UniProt Q14160-1 997-1193)
T1 construct: also called MBP-PDZ analyte SCRIB-34/4; tandem PDZ construct; source: E. coli BL21 DE3, purified (amylose column, Superdex 75 gel filtration)
T1 sequence (looked up): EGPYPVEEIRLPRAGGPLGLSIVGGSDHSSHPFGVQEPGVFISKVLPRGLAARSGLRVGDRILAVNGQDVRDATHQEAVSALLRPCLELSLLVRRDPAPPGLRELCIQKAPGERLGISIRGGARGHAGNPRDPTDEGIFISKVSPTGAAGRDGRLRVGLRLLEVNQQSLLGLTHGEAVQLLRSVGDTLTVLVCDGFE
procedureSummary: SPR
runParameters: both partners purified
Ends that are not written are not given here. * marks the point of attachment. Biotin = O=C1N[C@H]2[C@H](CS[C@H]2CCCCC(=O)*)N1

[
  {
    "binder": "Biotin-PKRSFIESNV (also called TANC1 long; source: synthetic peptide (JPT Peptide Technologies))",
    "Kd": "2 µM"
  },
  {
    "binder": "Biotin-TASPAKETSF (also called GLUT7 long; source: synthetic peptide (JPT Peptide Technologies))",
    "Kd": "5 µM"
  },
  {
    "binder": "Biotin-SSRTRRETQL (source: synthetic peptide (JPT Peptide Technologies)) [16E6 (long peptide of HPV16 early protein E6: the last ten residues)]",
    "Kd": "3 µM"
  },
  {
    "binder": "Biotin-GSGAGIESNV (also called TANC1 short; source: synthetic peptide (JPT Peptide Technologies))",
    "Kd": "9 µM"
  },
  {
    "binder": "Biotin-GSGAGKETSF (also called GLUT7 short; source: synthetic peptide (JPT Peptide Technologies))",
    "Kd": "5 µM"
  }
]
